Data provenance is ChEMBL document CHEMBL1142424.

Experiment: Cytotoxicity against human C8166 cells by MTT method
Format: cell-based
CC50 less than 30 µg/mL is Met; CC50 greater than or equal to 30 µg/mL is Not met.

// known answers, use as guide
molecule=CC(C)(O)/C=C/C[C@@](C)(O)[C@H]1[C@H](O)C[C@@]2(C)[C@@H]3CC=C4[C@@H](C[C@H](O)C(=O)C4(C)C)[C@]3(C)C(=O)C[C@]12C cat="Not met"
molecule="CC1(C)C(=O)C(O)=C[C@@H]2C1=CC[C@@H]1[C@@]2(C)C(=O)C[C@]2(C)CC(=O)C[C@@]12C [ENDECAPHYLLACIN B]" cat="Not met"
molecule="CC(C)(O)/C=C/C(=O)[C@](C)(O)[C@H]1[C@H](O)C[C@@]2(C)[C@@H]3CC=C4[C@@H](C=C(O)C(=O)C4(C)C)[C@]3(C)C(=O)C[C@]12C [CUCURBITACIN I]" cat=Met
molecule="CC(=O)OC(C)(C)CCC(=O)[C@](C)(O)[C@H]1[C@H](O)C[C@@]2(C)[C@@H]3CC=C4[C@@H](C[C@H](O)C(=O)C4(C)C)[C@]3(C)C(=O)C[C@]12C [23,24-DIHYDROCUCURBITACIN B]" cat=Met

Switching to the query record.
For this molecule, is CC50 lower than 30 µg/mL? CC(=O)OC(C)(C)/C=C/C(=O)[C@](C)(O)[C@H]1[C@H](O)C[C@@]2(C)[C@@H]3CC=C4[C@@H](C[C@H](O)C(=O)C4(C)C)[C@]3(C)C(=O)C[C@]12C [CUCURBITACIN B]
Met
